experimental.target: (H^+ +K^+)-ATPase (Canis lupus familiaris, UniProt P50996)
Construct: from tissue; host or cells: microsomes from glandular gastric mucosa (antral and cardiac regions removed) of mongrel dogs, lyophilized
Sequence (P50996 whole entry): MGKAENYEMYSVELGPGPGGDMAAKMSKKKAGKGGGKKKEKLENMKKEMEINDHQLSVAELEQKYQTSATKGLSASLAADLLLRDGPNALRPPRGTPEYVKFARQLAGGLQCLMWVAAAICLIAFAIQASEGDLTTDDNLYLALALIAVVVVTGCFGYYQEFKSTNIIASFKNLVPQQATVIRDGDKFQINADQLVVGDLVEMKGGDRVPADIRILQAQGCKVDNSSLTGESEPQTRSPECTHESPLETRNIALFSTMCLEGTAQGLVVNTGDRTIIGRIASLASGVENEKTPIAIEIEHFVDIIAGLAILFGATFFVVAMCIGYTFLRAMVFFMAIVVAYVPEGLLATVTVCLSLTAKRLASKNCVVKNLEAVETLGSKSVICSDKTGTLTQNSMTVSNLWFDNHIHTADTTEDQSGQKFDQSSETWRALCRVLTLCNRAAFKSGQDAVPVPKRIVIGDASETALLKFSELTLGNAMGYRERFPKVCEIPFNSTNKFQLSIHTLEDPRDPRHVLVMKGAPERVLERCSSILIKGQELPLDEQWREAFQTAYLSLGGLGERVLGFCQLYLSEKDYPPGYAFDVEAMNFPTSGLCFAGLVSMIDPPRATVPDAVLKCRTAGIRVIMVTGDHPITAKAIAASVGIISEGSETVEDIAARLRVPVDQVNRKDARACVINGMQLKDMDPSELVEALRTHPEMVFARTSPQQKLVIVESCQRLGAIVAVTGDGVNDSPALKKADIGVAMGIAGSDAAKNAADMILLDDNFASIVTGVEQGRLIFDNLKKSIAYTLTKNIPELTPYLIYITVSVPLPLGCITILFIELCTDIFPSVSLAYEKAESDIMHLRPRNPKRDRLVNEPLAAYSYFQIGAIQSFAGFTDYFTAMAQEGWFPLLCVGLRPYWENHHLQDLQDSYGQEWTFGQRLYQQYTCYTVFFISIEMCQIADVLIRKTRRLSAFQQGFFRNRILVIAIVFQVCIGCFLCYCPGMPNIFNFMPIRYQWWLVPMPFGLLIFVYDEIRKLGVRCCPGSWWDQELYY
Sequence (P33704 whole entry partner): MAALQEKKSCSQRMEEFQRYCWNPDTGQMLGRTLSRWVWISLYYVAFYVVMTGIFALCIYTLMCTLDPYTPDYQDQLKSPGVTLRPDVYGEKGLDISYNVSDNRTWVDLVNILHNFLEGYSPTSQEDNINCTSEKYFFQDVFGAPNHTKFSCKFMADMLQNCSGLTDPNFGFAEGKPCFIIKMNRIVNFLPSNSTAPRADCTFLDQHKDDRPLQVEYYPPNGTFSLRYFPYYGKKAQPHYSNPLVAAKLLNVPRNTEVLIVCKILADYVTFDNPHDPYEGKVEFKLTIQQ
assay.summary: Inhibition of (H^+ +K^+)-ATPase from Canine Gastric Mucosa
Type: biochemical, canine (mongrel dogs)
condition.info: canine gastric mucosa microsomes, pH 6.0, 30 min preincubation with compound at 37°
value.kind: IC50 (µM)
Kindly provide the numeric value in µM only, without the unit symbol.

// returns reported IC50 for input Nc1ncccc1C[S+]([O-])c1nc2ccccc2[nH]1.O (stereo not shown) [Example 3, hydrate]
100
